These entries and their values trace back to ChEMBL document CHEMBL4725418.

# Experimental System: Bifunctional epoxide hydrolase 2 (Homo sapiens)
# Sequence (P34913 whole entry, the tested form may be a part): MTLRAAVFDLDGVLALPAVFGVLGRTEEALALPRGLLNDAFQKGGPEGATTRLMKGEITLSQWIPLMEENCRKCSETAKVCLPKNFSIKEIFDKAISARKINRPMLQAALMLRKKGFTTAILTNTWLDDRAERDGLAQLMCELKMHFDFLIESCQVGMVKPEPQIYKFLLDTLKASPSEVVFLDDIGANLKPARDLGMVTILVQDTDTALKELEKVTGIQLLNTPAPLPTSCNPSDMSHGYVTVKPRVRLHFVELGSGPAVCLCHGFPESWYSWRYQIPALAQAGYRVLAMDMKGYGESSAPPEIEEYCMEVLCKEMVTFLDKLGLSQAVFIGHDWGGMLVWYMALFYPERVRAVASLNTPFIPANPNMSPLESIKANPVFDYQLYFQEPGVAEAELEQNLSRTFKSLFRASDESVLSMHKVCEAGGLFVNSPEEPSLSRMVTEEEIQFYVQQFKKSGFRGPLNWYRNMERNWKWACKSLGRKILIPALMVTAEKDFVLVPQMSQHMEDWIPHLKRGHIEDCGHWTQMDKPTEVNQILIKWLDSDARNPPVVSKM
# Assay Comment: Inhibition of human sEH (1 to 555 residues) expressed in Escherichia coli BL21-(DE3) using PHOME substrate incubated for 30 to 45 mins by fluorescence based assay
Please note: IC50 exactly at 2 nM is F. Only values below 2 nM get T.

# Molecule, Group Label
records = [
    ("C[C@H](C#Cc1cccc(C(=O)NCCC(c2ccc(F)cc2)c2ccc(C(F)(F)F)cc2)c1)N(O)C(N)=O (some centres undefined)", "T"),
    ("CC(C#Cc1cccc(C(=O)NCCc2c[nH]c3ccccc23)c1)N(O)C(N)=O (centres undefined)", "F"),
    ("CNc1nc(C)nc(N2CCC(C(=O)NCc3ccccc3C(F)(F)F)CC2)n1", "F"),
    ("C[C@H](C#Cc1cccc(C(=O)NCC[C@H](c2ccc(F)cc2)c2ccc(C(F)(F)F)cc2)c1)N(O)C(N)=O", "F"),
    ("CNc1nc(C)nc(N2CCC(C(=O)NCc3ccccc3OC(F)(F)F)CC2)n1", "T"),
    ("CC(C#Cc1cccc(C(=O)NCc2ccc(Cl)cc2Cl)c1)N(O)C(N)=O (centres undefined)", "F"),
    ("CC(C#Cc1cccc(C(=O)NCCC(c2ccccc2)c2ccc(OC(F)(F)F)cc2)c1)N(O)C(N)=O (centres undefined)", "F"),
]

In: Is 2 nM strictly greater than the molecule's reported IC50? molecule: CCC(C#Cc1cccc(C(=O)NCc2ccccc2C(F)(F)F)c1)N(O)C(N)=O (centres undefined)
Out: F

====

# Assay Comment: Tmax in Swiss CD-1 mouse at 3 mg/kg, po administered as single dose by LC-MS analysis
# Assay type: ADME, organism-based
# Applied Conditions: in vivo
Readout Type: Tmax (h)
The reply should contain only the number, in h.

In: Fill in: Tmax of `C[C@H](C#Cc1cccc(C(=O)NCCC(c2ccc(F)cc2)c2ccc(F)cc2)c1)N(O)C(N)=O` is ___
Out: 1
